Entry source: patent US20250122222A1

target: His-tagged KRAS G12D protein (Homo sapiens, UniProt P01116, G12D); assay: KRAS G12D TR-FRET assay (binding); settings: biotinylated KRPep-2d substrate, GDP in assay buffer
Sequence (P01116 1-188 isoform P01116-2 G12D): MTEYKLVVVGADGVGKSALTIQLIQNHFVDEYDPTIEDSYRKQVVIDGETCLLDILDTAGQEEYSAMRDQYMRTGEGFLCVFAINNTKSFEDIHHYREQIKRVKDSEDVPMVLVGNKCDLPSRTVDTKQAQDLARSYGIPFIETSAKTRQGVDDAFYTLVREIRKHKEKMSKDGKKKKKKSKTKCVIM
I'd appreciate it if you could label each record using IC50 and these ranges: low band = under 5 nM, middle band = from 5 nM up to 20 nM, high band = 20 nM and over

Classify this molecule: CCc1c(F)ccc2cc(O)cc(-c3ncc4c(N5C[C@H]6COC[C@@H](C5)O6)nc(OC[C@@]56CCCN5C[C@H](F)C6)nc4c3F)c12 [Example 21]
middle band

Others:
Each molecule maps to one class by IC50. Which class for CCc1c(F)ccc2cc(O)cc(-c3ncc4c(N5CCOCC[C@H]5C)nc(OC[C@@]56CCCN5C[C@H](F)C6)nc4c3F)c12 [Example 54] ?
middle band

Which IC50 category applies to CCc1c(F)ccc2cc(O)cc(-c3ncc4c(N5CCOC(C(F)F)C5)nc(OC[C@@]56CCCN5C[C@H](F)C6)nc4c3F)c12 (some centres unmarked) [Example 75] here?
high band

Hello team, could you let me know which band the following molecule falls into: CCc1c(F)ccc2cc(O)cc(-c3ncc4c(N5CCOC[C@](O)(CC)C5)nc(OC[C@@]56CCCN5C[C@H](F)C6)nc4c3F)c12 [Example 79]
low band

Tag the class for CCc1c(F)ccc2cc(O)cc(-c3ncc4c(N5CCCOC(C(N)=O)C5)nc(OC[C@@]56CCCN5C[C@H](F)C6)nc4c3F)c12 (some centres unmarked) [Example 51]
middle band

For CCc1c(F)ccc2cc(O)cc(-c3ncc4c(N5CCOC[C@@](C)(O)C5)nc(OC[C@@]56CCCN5C[C@H](F)C6)nc4c3Cl)c12 (single isomer, unassigned) [Example 80] , which IC50 bin applies?
low band

Class label required: CCc1c(F)ccc2cc(O)cc(-c3ncc4c(N5C[C@H]6C[C@@H](C5)O6)nc(OC[C@@]56CCCN5C[C@H](F)C6)nc4c3F)c12 [Example 27]
high band

Assign a bin to CCc1c(F)ccc2cc(O)cc(-c3ncc4c(N5CCCOC(CO)C5)nc(OC[C@@]56CCCN5C[C@H](F)C6)nc4c3F)c12 (single isomer, unassigned) [Example 48]
middle band

Any idea which band CN1C[C@H](F)C[C@H]1COc1nc(N2CCCOCC2)c2cnc(-c3cc(O)cc4ccccc34)c(F)c2n1 [Example 16] is in?
high band
